Origin of the recorded values: PubChem BioAssay

// reported viability per item
Assay: reducers of endogenous Her2 protein level, primary screen, SKBR3 breast tumor cells, AlphaScreen, ATP viability (AID 461);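 further: percent of carrier control wells set as 100% viability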
Settings: 18-24 h, measured here: SKBR3 viability, ATP luminescence, at 10 µM
Output spec: scalar in %, unitless text.

Cc1c(C(=O)N2CCOCC2)oc2ccc(S(=O)(=O)N3CCCC3)cc12; 95

Prompt: Recorded viability for `Cc1ccc(O)c(NC(=O)COc2cc(C)ccc2C)c1` , please?
Response: 93.5

Prompt: Requested read-out: viability. Entry: O=C(NCCCN1CCOCC1)C1CC(=O)N(CCc2ccccc2)C1 (stereo unspecified)
Response: 104

Prompt: Field request: viability | item: `CCOC(=O)N1CCN(S(=O)(=O)c2ccc(Br)s2)CC1`
Response: 103

Prompt: Item `COC(=O)CSc1nc2ncc(Cl)cc2[nH]1` has what recorded viability?
Response: 101

Prompt: For the molecule `COCCNS(=O)(=O)c1cc(F)ccc1OC` , what viability is on record?
Response: 90

Prompt: For the molecule shown here, `O=C(OCC#CCSc1nnc(-c2ccncc2)o1)c1cccs1` , give the reported viability.
Response: 118

Prompt: Give the measured viability of `O=C(Nn1cnnc1)c1cc2c(s1)CCCC2` .
Response: 100

Prompt: Sample `Cn1c(SCC(N)=O)nnc1C1CCN(S(=O)(=O)c2ccccc2C(F)(F)F)CC1` — what was its viability?
Response: 114

Prompt: I'd like to know its viability. The molecule in question is `CCN(CC)S(=O)(=O)c1ccc(NC(=O)CN(c2cccc(F)c2)S(C)(=O)=O)cc1`
Response: 96

Prompt: viability for `CN1CCc2nc(SCC(=O)Nc3ccc(F)cc3)c(C#N)cc2C1` ?
Response: 90.5
